target: cellular DNA polymerase α (Bos taurus, UniProt A0AAA9TD94); construct: purified from calf thymus; assay: Effect on cellular DNA polymerase α; settings: enzyme purified from calf thymus; read-out: ID50 cellular polymerase α
Sequence (A0AAA9TD94 1-1441): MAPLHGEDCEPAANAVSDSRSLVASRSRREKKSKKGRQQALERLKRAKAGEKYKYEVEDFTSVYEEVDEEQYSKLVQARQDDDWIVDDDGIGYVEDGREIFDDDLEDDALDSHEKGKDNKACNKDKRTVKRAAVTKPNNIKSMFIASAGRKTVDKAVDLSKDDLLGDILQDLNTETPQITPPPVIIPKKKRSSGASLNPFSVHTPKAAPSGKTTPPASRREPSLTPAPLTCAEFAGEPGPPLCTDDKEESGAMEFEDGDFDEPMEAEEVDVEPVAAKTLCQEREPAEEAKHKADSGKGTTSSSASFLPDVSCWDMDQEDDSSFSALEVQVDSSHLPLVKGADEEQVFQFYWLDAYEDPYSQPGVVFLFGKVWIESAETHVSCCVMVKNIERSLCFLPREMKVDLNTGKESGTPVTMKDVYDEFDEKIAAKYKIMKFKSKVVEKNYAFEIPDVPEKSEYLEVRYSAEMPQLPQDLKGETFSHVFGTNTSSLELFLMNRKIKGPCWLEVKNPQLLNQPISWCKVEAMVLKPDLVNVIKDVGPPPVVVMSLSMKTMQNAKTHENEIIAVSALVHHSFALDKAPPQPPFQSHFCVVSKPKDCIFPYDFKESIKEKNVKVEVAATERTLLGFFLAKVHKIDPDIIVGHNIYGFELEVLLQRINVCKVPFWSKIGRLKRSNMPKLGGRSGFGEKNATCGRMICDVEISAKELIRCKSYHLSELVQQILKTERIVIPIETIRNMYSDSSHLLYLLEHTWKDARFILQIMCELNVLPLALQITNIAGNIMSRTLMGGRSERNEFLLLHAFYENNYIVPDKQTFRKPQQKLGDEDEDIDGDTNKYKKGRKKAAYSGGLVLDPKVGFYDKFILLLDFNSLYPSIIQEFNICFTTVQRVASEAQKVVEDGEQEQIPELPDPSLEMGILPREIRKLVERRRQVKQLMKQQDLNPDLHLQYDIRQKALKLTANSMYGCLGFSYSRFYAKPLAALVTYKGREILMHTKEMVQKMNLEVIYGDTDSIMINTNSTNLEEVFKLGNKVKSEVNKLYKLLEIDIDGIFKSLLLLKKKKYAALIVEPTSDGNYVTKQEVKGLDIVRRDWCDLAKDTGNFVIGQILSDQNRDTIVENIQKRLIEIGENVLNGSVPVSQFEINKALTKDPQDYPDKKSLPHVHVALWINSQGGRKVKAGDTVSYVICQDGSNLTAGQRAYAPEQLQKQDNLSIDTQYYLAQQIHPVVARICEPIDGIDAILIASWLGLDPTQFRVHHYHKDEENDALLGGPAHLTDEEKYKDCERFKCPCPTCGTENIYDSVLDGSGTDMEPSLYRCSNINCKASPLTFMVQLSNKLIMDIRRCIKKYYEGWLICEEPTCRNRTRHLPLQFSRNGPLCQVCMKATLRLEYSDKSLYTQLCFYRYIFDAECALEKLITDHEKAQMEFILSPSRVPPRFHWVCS
measured-quantity: IC50

Here are 4 compounds together with their reported answers.
>  <compound>
Cc1cn([C@H]2C[C@H](F)[C@@H](COP(=O)(O)OP(=O)(O)OP(=O)(O)O)O2)c(=O)[nH]c1=O [FdTTP]

>  <measured-quantity>
IC50

>  <reported-measurement>
> 200 µM

$$$$
>  <compound>
O=c1[nH]c(=O)n([C@H]2C[C@H](F)[C@@H](COP(=O)(O)OP(=O)(O)OP(=O)(O)O)O2)cc1F [Compound F5FdUTP]

>  <measured-quantity>
IC50

>  <reported-measurement>
> 200 µM

$$$$
>  <compound>
O=c1ccn([C@H]2C[C@H](F)[C@@H](COP(=O)(O)OP(=O)(O)OP(=O)(O)O)O2)c(=O)[nH]1 [FdUTP]

>  <measured-quantity>
IC50

>  <reported-measurement>
> 200 µM

$$$$
>  <compound>
CCc1cn([C@H]2C[C@H](F)[C@@H](COP(=O)(O)OP(=O)(O)OP(=O)(O)O)O2)c(=O)[nH]c1=O [Compound F5EtdUTP]

>  <measured-quantity>
IC50

>  <reported-measurement>
10 µM

$$$$

Name the reported IC50 value associated with the compound Nc1nc2c(ncn2[C@H]2C[C@H](F)[C@@H](COP(=O)(O)OP(=O)(O)OP(=O)(O)O)O2)c(=O)[nH]1 [FdGTP]
> 200 µM
